- Assay System: UniProt:P40763
- Sequence (P40763 whole entry): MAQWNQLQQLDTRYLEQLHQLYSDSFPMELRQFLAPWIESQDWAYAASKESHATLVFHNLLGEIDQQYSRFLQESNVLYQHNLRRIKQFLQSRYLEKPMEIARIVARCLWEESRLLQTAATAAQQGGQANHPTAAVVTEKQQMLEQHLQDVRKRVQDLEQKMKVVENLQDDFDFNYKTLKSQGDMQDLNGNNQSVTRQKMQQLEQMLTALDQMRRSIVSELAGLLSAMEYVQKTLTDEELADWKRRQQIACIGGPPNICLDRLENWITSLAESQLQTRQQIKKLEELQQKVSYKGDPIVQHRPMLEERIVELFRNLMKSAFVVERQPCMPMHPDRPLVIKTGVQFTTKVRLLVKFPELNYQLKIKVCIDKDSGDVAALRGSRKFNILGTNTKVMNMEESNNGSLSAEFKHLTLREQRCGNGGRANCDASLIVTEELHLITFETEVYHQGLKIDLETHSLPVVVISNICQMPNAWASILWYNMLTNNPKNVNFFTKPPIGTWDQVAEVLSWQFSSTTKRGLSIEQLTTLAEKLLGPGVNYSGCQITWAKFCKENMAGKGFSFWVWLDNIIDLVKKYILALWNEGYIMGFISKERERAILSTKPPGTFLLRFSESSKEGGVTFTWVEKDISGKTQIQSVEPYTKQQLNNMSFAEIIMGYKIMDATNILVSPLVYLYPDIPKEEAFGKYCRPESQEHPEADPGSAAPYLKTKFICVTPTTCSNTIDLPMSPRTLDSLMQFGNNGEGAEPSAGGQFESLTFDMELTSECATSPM
- Test Protocol: Inhibition of IFNgamma-stimulated STAT3 activation in human HeLa cells incubated with IFNgamma for 16 hrs followed by compound addition measured after 24 hrs by luciferase reporter gene assay
- Type: cell-based
Examples of compounds with documented EC50 follow.
Assay Readout: EC50 (µM)

compound="C=C1CC[C@@H]2[C@](C)(CO)[C@H](O)CC[C@@]2(C)[C@@H]1C/C=C1/C(=O)OC[C@H]1O [ANDROGRAPHOLIDE]" assay_system=UniProt:P40763 qualifier_operator=> quantitative_readout=10
compound=CC(C)(C)[Si](C)(C)O[C@@H]1COC(=O)/C1=C/C[C@@H]1[C@]2(CC[C@H]3[C@@]1(C)CCC(=O)[C@@]3(C)CO)CO2 assay_system=UniProt:P40763 qualifier_operator== quantitative_readout=5.9
compound=CC(C)(C)[Si](C)(C)OC[C@]1(C)C(=O)CC[C@@]2(C)[C@H](C/C=C3/C(=O)OC[C@H]3O)[C@]3(CC[C@@H]21)CO3 assay_system=UniProt:P40763 qualifier_operator=> quantitative_readout=10
compound=CC(=O)OC[C@]1(C)C(=O)CC[C@@]2(C)[C@H](C/C=C3/C(=O)OC[C@H]3O[Si](C)(C)C(C)(C)C)[C@]3(CC[C@@H]21)CO3 assay_system=UniProt:P40763 qualifier_operator== quantitative_readout=8.34
compound=C=C1CC[C@H]2[C@@](C)(CCC(=O)[C@@]2(C)CO[Si](C)(C)C(C)(C)C)[C@@H]1C/C=C1/C(=O)OC[C@@H]1O assay_system=UniProt:P40763 qualifier_operator=> quantitative_readout=10
compound=CC(=O)O[C@@H]1COC(=O)/C1=C/C[C@@H]1[C@]2(CC[C@@H]3[C@](C)(CO)[C@H](O)CC[C@]31C)CO2 assay_system=UniProt:P40763 qualifier_operator== quantitative_readout=9.45
compound=C=C1CC[C@H]2[C@@](C)(CCC(=O)[C@@]2(C)CO[Si](C)(C)C(C)(C)C)[C@@H]1C/C=C1/C(=O)OC[C@H]1OC(C)=O assay_system=UniProt:P40763 qualifier_operator== quantitative_readout=4.43
compound=C=C1CC[C@@H]2[C@](C)(CO)[C@H](O)CC[C@@]2(C)[C@@H]1C/C=C1/C(=O)OC[C@H]1O[Si](C)(C)C(C)(C)C assay_system=UniProt:P40763 qualifier_operator== quantitative_readout=6.57
compound=C=C1CC[C@@H]2[C@](C)(CO[Si](C)(C)C(C)(C)C)[C@H](OC(C)=O)CC[C@@]2(C)[C@@H]1C/C=C1/C(=O)OC[C@H]1OC(C)=O assay_system=UniProt:P40763 qualifier_operator== quantitative_readout=5.8
compound=CC(C)(C)[Si](C)(C)O[C@@H]1CC[C@]2(C)[C@H](CC[C@@]3(CO3)[C@H]2C/C=C2/C(=O)OC[C@H]2O)[C@]1(C)CO assay_system=UniProt:P40763 qualifier_operator== quantitative_readout=6.15
compound=CC(=O)OC[C@]1(C)C(=O)CC[C@@]2(C)[C@H](C/C=C3/C(=O)OC[C@@H]3O[Si](C)(C)C(C)(C)C)[C@]3(CC[C@@H]21)CO3 assay_system=UniProt:P40763 qualifier_operator=> quantitative_readout=10
compound=CC(=O)O[C@@H]1COC(=O)/C1=C/C[C@@H]1[C@@]2(CC[C@@H]3[C@](C)(CO)[C@H](O)CC[C@]31C)CO2 assay_system=UniProt:P40763 qualifier_operator=> quantitative_readout=10
compound=C=C1CC[C@H]2[C@@](C)(CCC(=O)[C@@]2(C)CO[Si](C)(C)C(C)(C)C)[C@@H]1C/C=C1/C(=O)OC[C@H]1O assay_system=UniProt:P40763 qualifier_operator== quantitative_readout=8.95
compound=C=C1CC[C@@H]2[C@](C)(CO[Si](C)(C)C(C)(C)C)[C@H](O)CC[C@@]2(C)[C@@H]1C/C=C1/C(=O)OC[C@@H]1OC(C)=O assay_system=UniProt:P40763 qualifier_operator== quantitative_readout=9.43
compound=C=C1CC[C@H]2[C@@](C)(CCC(=O)[C@@]2(C)CO)[C@@H]1C/C=C1/C(=O)OC[C@@H]1OC(C)=O assay_system=UniProt:P40763 qualifier_operator=> quantitative_readout=10
compound=C=C1CC[C@H]2[C@@](C)(CCC(=O)[C@@]2(C)CO)[C@@H]1C/C=C1/C(=O)OC[C@H]1O[Si](C)(C)C(C)(C)C assay_system=UniProt:P40763 qualifier_operator=> quantitative_readout=10
compound=C=C1CC[C@H]2[C@@](C)(CCC(=O)[C@@]2(C)CO)[C@@H]1C/C=C1/C(=O)OC[C@@H]1O[Si](C)(C)C(C)(C)C assay_system=UniProt:P40763 qualifier_operator=> quantitative_readout=10
compound=CC(C)(C)[Si](C)(C)O[C@@H]1COC(=O)/C1=C/C[C@@H]1[C@]2(CC[C@@H]3[C@](C)(CO)[C@H](O)CC[C@]31C)CO2 assay_system=UniProt:P40763 qualifier_operator=> quantitative_readout=10
compound=C=C1CC[C@@H]2[C@](C)(COC(C)=O)[C@H](OC(C)=O)CC[C@@]2(C)[C@@H]1C/C=C1/C(=O)OC[C@H]1O[Si](C)(C)C(C)(C)C assay_system=UniProt:P40763 qualifier_operator=> quantitative_readout=10
compound=C=C1CC[C@@H]2[C@](C)(CO)[C@H](O)CC[C@@]2(C)[C@@H]1C/C=C1/C(=O)OC[C@@H]1O[Si](C)(C)C(C)(C)C assay_system=UniProt:P40763 qualifier_operator=> quantitative_readout=10
compound=C=C1CC[C@H]2[C@@](C)(CCC(=O)[C@@]2(C)COC(C)=O)[C@@H]1C/C=C1/C(=O)OC[C@@H]1O[Si](C)(C)C(C)(C)C assay_system=UniProt:P40763 qualifier_operator=> quantitative_readout=10
compound=C=C1CC[C@H]2[C@@](C)(CCC(=O)[C@@]2(C)COC(C)=O)[C@@H]1C/C=C1/C(=O)OC[C@H]1O[Si](C)(C)C(C)(C)C assay_system=UniProt:P40763 qualifier_operator=> quantitative_readout=10
compound=C[C@@]12CCC(=O)[C@@](C)(CO)[C@H]1CC[C@]1(CO1)[C@H]2C/C=C1/C(=O)OC[C@H]1O assay_system=UniProt:P40763 qualifier_operator=> quantitative_readout=10
compound=CC(C)(C)[Si](C)(C)O[C@@H]1CC[C@]2(C)[C@H](CC[C@]3(CO3)[C@H]2C/C=C2/C(=O)OC[C@H]2O)[C@]1(C)CO assay_system=UniProt:P40763 qualifier_operator== quantitative_readout=8.34
compound=C=C1CC[C@@H]2[C@](C)(COC(C)=O)[C@H](OC(C)=O)CC[C@@]2(C)[C@@H]1C/C=C1/C(=O)OC[C@@H]1O[Si](C)(C)C(C)(C)C assay_system=UniProt:P40763 qualifier_operator=> quantitative_readout=10
